Quick reference: DC50 of the listed items.
- measurement_target: ER (Homo sapiens (Human))
- Sequence (P03372 whole entry): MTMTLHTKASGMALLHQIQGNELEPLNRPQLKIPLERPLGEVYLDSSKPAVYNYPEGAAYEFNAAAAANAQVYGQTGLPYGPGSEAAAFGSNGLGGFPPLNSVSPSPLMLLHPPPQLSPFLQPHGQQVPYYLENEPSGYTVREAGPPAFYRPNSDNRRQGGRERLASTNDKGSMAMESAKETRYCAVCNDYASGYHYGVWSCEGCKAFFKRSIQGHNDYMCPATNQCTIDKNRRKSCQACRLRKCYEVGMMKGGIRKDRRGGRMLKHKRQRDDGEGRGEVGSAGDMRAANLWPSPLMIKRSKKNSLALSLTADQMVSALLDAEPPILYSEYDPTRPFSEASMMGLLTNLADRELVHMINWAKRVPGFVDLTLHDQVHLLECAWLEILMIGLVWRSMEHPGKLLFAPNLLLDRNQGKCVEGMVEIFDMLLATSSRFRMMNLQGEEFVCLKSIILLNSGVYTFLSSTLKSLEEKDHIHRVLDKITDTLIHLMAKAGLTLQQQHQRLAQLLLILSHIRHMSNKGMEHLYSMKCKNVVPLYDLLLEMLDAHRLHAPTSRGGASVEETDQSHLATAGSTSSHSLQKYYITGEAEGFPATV
- experiment_summary: In-cell western (ICW) ER degradation assay in T47D cells
- Type: cell-based
- run_parameters: ER degradation, 16 hrs

Illustrative cases are given below, each with its answer.
1. O=C1CCN(c2ccc(N3CCC4(CC3)CC(CN3CCN(c5ccc([C@@H]6c7ccc(O)cc7OC[C@@H]6c6ccccc6)cc5)CC3)C4)cc2)C(=O)N1 | 1 to 10 nM
2. O=C1CC[C@@H](N2Cc3c(ccc4c3OC[C@@H]3CN(C[C@@H]5COC6(CCN(c7ccc([C@H]8c9ccc(O)cc9OC[C@H]8c8ccccc8)cc7F)CC6)C5)CCN43)C2=O)C(=O)N1 | 1 to 10 nM
3. O=C1CC[C@@H](N2Cc3cc4c(cc3C2=O)OCC42CCN(CC3CCC4(CC3)CN(c3ccc([C@H]5c6ccc(O)cc6OC[C@H]5c5ccccc5)cc3)C4)CC2)C(=O)N1 | < 1 nM

Value lookup for DC50; key = O=C1CC[C@H](N2Cc3c(ccc4c3OC[C@H]3CN(C[C@@H]5COC6(CCN(c7ccc([C@@H]8c9ccc(O)cc9OC[C@@H]8c8ccccc8)cc7F)CC6)C5)CCN43)C2=O)C(=O)N1 (single isomer, unassigned)
< 1 nM

Try COC[C@H](C(=O)N1Cc2cc3c(cc2C1)C(=O)N(C1CCC(=O)NC1=O)C3)N1CCC2(CCN(c3ccc([C@@H]4c5ccc(O)cc5OC[C@@H]4c4ccccc4)cc3)CC2)CC1 (single isomer, unassigned) next.
1 to 10 nM
